Tested on: TDF;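 further: TDF denotes transformed human dermal fibroblasts of mesenchymal origin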
protocol_notes: cell number relative to DMSO (% of DMSO); higher = more cells (less growth inhibition / toxicity)
run_conditions: concentration: 10 µM; 24 h
Can you tell me cell number for the items I'm about to list?
Give the value as a plain number.

The reported value for CC(=O)OC1CC2CCC3C(CCC4(C)C3CC([N+]3(C)CCCCC3)C4OC(C)=O)C2(C)CC1N1CCCCC1 (stereo not given) [Vecuronium] in terms of cell number is 95.7

The reported value for CCCCCC=CCC=CCCCCCCCC(N)=O [Linoleamide] in terms of cell number is 94.8

The reported value for NC(=O)c1ccc(-c2nc(-c3ccc4c(c3)OCCO4)c(-c3ccccn3)[nH]2)cc1 [Casein Kinase I Inhibitor, D4476] in terms of cell number is 97

The reported value for CCCCCOC(=O)Nc1nc(=O)n(C2OC(C)C(O)C2O)cc1F (stereo not given) [Capecitabine] in terms of cell number is 98.9

The reported value for OC1CCN2Cc3ccccc3N=C12 (stereo not given) [Vasicine] in terms of cell number is 105

The reported value for Cc1nc(Nc2ncc(C(=O)Nc3c(C)cccc3Cl)s2)cc(N2CCN(CCO)CC2)n1 [Dasatinib] in terms of cell number is 93.4

The reported value for Cl.Cl.OCCN1CCN(CCC=C2c3ccccc3Sc3ccc(C(F)(F)F)cc32)CC1 [cis-(Z)-Flupenthixol dihydrochloride] in terms of cell number is 102

The reported value for COc1ccc2cc(C(C)C(=O)O)ccc2c1 (stereo not given) [Naproxen] in terms of cell number is 83.8

The reported value for CCCCCC(O)C=CC1OC(O)CC(O)C1CC=CCCCC(=O)O (stereo not given) [Thromboxane B2] in terms of cell number is 95.2

The reported value for O=NN(CCCl)C(=O)NCCCl [Carmustine] in terms of cell number is 93.9

The reported value for CSc1ccc(/C=C2/C(C)=C(CC(=O)O)c3cc(F)ccc32)cc1 in terms of cell number is 105

The reported value for CNNCc1ccc(C(=O)NC(C)C)cc1 [Procarbazine] in terms of cell number is 106

The reported value for CC(C)c1cc(/C=C(\C#N)C(=O)NCCCc2ccccc2)cc(C(C)C)c1O in terms of cell number is 81.8

The reported value for Cc1cnc(Nc2ccc(OCCN3CCCC3)cc2)nc1Nc1cccc(S(=O)(=O)NC(C)(C)C)c1 in terms of cell number is 43.3

The reported value for C#CCN(C)Cc1ccccc1.Cl [Pargyline hydrochloride] in terms of cell number is 105

The reported value for Cc1cc2nc(NCCCO)n(CC(=O)c3cc(C(C)(C)C)c(O)c(C(C)(C)C)c3)c2cc1C in terms of cell number is 78.5

The reported value for CCC1(O)C(=O)OCc2c1cc1n(c2=O)Cc2cc3c(CN(C)C)c(O)ccc3nc2-1.Cl (stereo not given) [Topotecan.HCl] in terms of cell number is 17.1

The reported value for COc1ccccc1N1CCN(CCCNc2cc(=O)n(C)c(=O)n2C)CC1.Cl [Urapidil hydrochloride] in terms of cell number is 102

The reported value for CON(C)C(=O)[C@H](O)[C@H](Cc1ccccc1)NC(=O)c1cc2cc(Cl)ccc2[nH]1 in terms of cell number is 110

The reported value for CCCCCC(=O)C=CC=CCC=CCC=CCCCC(=O)O [15-Ketoeicosatetraenoic acid] in terms of cell number is 102
